The measurements presented in this section are drawn from a melting point compilation (Tetko et al.; mined from patent text by program, amines drawn as free bases though some values may be those of a salt).

So I've got a bunch of molecules here, and I need their melting point values.

>  <molecule>
Cc1oc(-c2ccccc2)nc1COc1cc(COc2ccccc2CC(=O)O)on1

>  <melting point>
152 to 153 °C

$$$$
>  <molecule>
O=C(O)C=Cc1cccc(-c2cccc([N+](=O)[O-])c2)c1

>  <melting point>
247 to 248 °C

$$$$
>  <molecule>
C=C1c2ccccc2C=Cn2c1nnc2S(C)=O (stereo unspecified)

>  <melting point>
140 to 142 °C

$$$$

For each of the items listed, what is its melting point?
1. C[Si](C)(C)CCC1=C(OC(=O)c2ccccc2)C(=O)c2ccccc2C1=O
2. CC1CCN(c2cc(F)cc(C(=O)Nc3ccc(Oc4ccnc(NC5CCCC5)n4)c4ccccc34)c2)CC1
3. COc1ccccc1N1CCN(CCNc2ccccc2C(N)=O)CC1
4. CC(=O)c1cc(C(C)=O)cc(S(N)(=O)=O)c1
5. OC(CCc1ccc(F)cc1)c1cnc2sc3c(n12)CCCCC3 (stereo unspecified)

1: 92 to 95 °C; 2: 88 to 90 °C; 3: 134 to 136 °C; 4: 179 to 181 °C; 5: 144 to 146 °C
